Tested on: Streptococcus pyogenes SSI-9
Assay: Antibacterial activity assay of bead-derived peptides (three concentrations)
Format: cell-based
Parameters: key: +++: inhibition by the 640-fold diluted peptide solution; ++: inhibition by the 160-fold diluted solution; +: inhibition by the 40-fold diluted solution; -: no inhibition
Settings: S. pyogenes, bead-derived peptide solution, three concentrations
Procedure: Each type of assay must be simplified and miniaturized to assess the activities of the library peptides in a 96-well format for the high-throughput screening. Next, the peptides in groups A and B were subjected to the antibacterial assay and structural determination. Three peptide concentrations were applied to evaluate the growth inhibition of S. pyogenes and determine the antibacterial activity. […] Finally, the structures of the peptides were determined. […]
Where a SMILES comes first, the peptide text is derived from it. [ ]: non-standard residue; d: D form. The star is where a group is joined. NHCH2CH2OH = OCCN*; For = O=C*
attribute.measured: antibacterial activity

CC(C)C[C@@H](NC(=O)[C@H](C)NC(=O)CNC(=O)[C@@H](NC=O)C(C)C)C(=O)N[C@@H](C)C(=O)N[C@H](CC(C)C)C(=O)N[C@H](C(=O)N[C@@H](C(=O)N[C@@H](Cc1c[nH]c2ccccc12)C(=O)N[C@@H](C(=O)N[C@@H](Cc1c[nH]c2ccccc12)C(=O)N[C@@H](C(=O)N[C@@H](Cc1c[nH]c2ccccc12)C(=O)N[C@H](CC(C)C)C(=O)N[C@@H](Cc1c[nH]c2ccccc12)C(=O)NCCO)C(C)C)C(C)C)[C@H](C)O)C(C)C [compound 7548] (For-VGA[dL]A[dL]V[dT]W[dV]W[dV]W[dL]W-NHCH2CH2OH) | -
CC(C)C[C@@H](NC(=O)[C@H](C)NC(=O)[C@H](NC(=O)[C@H](C)NC(=O)CNC(=O)[C@@H](NC=O)C(C)C)C(C)C)C(=O)N[C@H](C(=O)N[C@@H](C(=O)N[C@@H](Cc1c[nH]c2ccccc12)C(=O)N[C@H](CC(C)C)C(=O)N[C@@H](Cc1c[nH]c2ccccc12)C(=O)N[C@@H](C(=O)N[C@@H](Cc1c[nH]c2ccccc12)C(=O)N[C@H](CC(C)C)C(=O)N[C@@H](Cc1c[nH]c2ccccc12)C(=O)NCCO)C(C)C)C(C)C)C(C)C [compound 7146] (For-VGA[dV]A[dL]V[dV]W[dL]W[dV]W[dL]W-NHCH2CH2OH) | +

###

test system: Streptococcus pyogenes SSI-9; assay: Antibacterial activity assay of bead-derived peptides (three concentrations); type: cell-based; design: key: +++: inhibition by the 640-fold diluted peptide solution; ++: inhibition by the 160-fold diluted solution; +: inhibition by the 40-fold diluted solution; -: no inhibition; settings: S. pyogenes, bead-derived peptide solution, three concentrations
Where a SMILES comes first, the peptide text is derived from it. [ ]: non-standard residue; d: D form. The star is where a group is joined. NHCH2CH2OH = OCCN*; For = O=C*
attribute.measured: antibacterial activity

CC(C)C[C@@H](NC(=O)[C@H](C)NC(=O)CNC(=O)[C@@H](NC=O)C(C)C)C(=O)N[C@@H](C)C(=O)N[C@@H](C(=O)N[C@H](C(=O)N[C@@H](C(=O)N[C@@H](Cc1c[nH]c2ccccc12)C(=O)N[C@@H](C(=O)N[C@@H](Cc1c[nH]c2ccccc12)C(=O)N[C@H](CC(C)C)C(=O)N[C@@H](Cc1c[nH]c2ccccc12)C(=O)N[C@H](CC(C)C)C(=O)N[C@@H](Cc1c[nH]c2ccccc12)C(=O)NCCO)C(C)C)[C@H](C)O)C(C)C)C(C)C [compound 6225] (For-VGA[dL]A[dV]V[dT]W[dV]W[dL]W[dL]W-NHCH2CH2OH) | -
CNC(=O)C[C@@H](NC(=O)[C@H](Cc1c[nH]c2ccccc12)NC(=O)[C@@H](CC(C)C)NC(=O)[C@H](Cc1c[nH]c2ccccc12)NC(=O)[C@H](NC(=O)[C@H](Cc1c[nH]c2ccccc12)NC(=O)[C@H](NC(=O)[C@@H](NC(=O)[C@@H](CC(C)C)NC(=O)[C@H](C)NC(=O)[C@H](NC(=O)[C@H](C)NC(=O)CNC(=O)[C@@H](NC=O)C(C)C)C(C)C)C(C)C)C(C)C)C(C)C)C(=O)N[C@@H](Cc1c[nH]c2ccccc12)C(=O)NCCO [compound 6329] (For-VGA[dV]A[dL]V[dV]W[dV]W[dL]W[dD](NHMe)W-NHCH2CH2OH) | -
CC(C)C[C@@H](NC(=O)[C@H](Cc1c[nH]c2ccccc12)NC(=O)[C@@H](CC(C)C)NC(=O)[C@@H](NC(=O)[C@H](NC(=O)[C@H](C)NC(=O)[C@H](NC(=O)[C@H](C)NC(=O)CNC(=O)[C@@H](NC=O)C(C)C)C(C)C)C(C)C)C(C)C)C(=O)N[C@@H](Cc1c[nH]c2ccccc12)C(=O)N[C@@H](C(=O)N[C@@H](Cc1c[nH]c2ccccc12)C(=O)N[C@@H](C(=O)N[C@@H](Cc1c[nH]c2ccccc12)C(=O)NCCO)C(C)C)[C@H](C)O [compound 5311] (For-VGA[dV]A[dV]V[dL]W[dL]W[dT]W[dV]W-NHCH2CH2OH) | +
CC(C)C[C@@H](NC(=O)[C@H](C)NC(=O)CNC(=O)[C@@H](NC=O)C(C)C)C(=O)N[C@@H](C)C(=O)N[C@H](CC(C)C)C(=O)N[C@H](C(=O)N[C@@H](C(=O)N[C@@H](Cc1c[nH]c2ccccc12)C(=O)N[C@@H](C(=O)N[C@@H](Cc1c[nH]c2ccccc12)C(=O)N[C@@H](C(=O)N[C@@H](Cc1c[nH]c2ccccc12)C(=O)N[C@H](CC(C)C)C(=O)N[C@@H](Cc1c[nH]c2ccccc12)C(=O)NCCO)C(C)C)[C@H](C)O)C(C)C)C(C)C [compound 6950] (For-VGA[dL]A[dL]V[dV]W[dT]W[dV]W[dL]W-NHCH2CH2OH) | -

Where do these numbers come from? They come from paper PMC7531004.
